Hello, the source for this data is patent US7329737, in case you need it.

# testedOn: T1, hK1 (human tissue kallikrein 1), recombinant (human, UniProt P06870 25-262)
# T1 construct: Expressed in P. pastoris from KLK1 cDNA and purified; enzymatically active; also called KLK1; Recombinant (Pichia) Kallikrein
# assayComment: SPR
pKd: −log10 of the molar value.
observedProperty: pKd

>  <binder>
M0137-G10 (Fab, V domains shown) VH: EVQLLESGGGLVQPGGSLRLSCAASGFTFSRYVMHWVRQAPGKGLEWVSYISPSGGVTKYADSVKGRFTISRDNSKNTLYLQMNSLRAEDTAVYYCAKALYPGMGYYYGMDVWGQGTTVTVSS VL: DIQMTQSPSSLSASVGDRVTITCRTSQTVSTFLNWYQQKPGTAPKLLIYAASRLQSGVPSRFSGSGSETDFTLTISRLQPEDFATYYCQQSFTSPRTFGLGTKVEIKR

>  <observedProperty>
pKd

>  <quantitativeReadout>
7.73

$$$$
>  <binder>
M0135-C12 (Fab, V domains shown) VH: EVQLLESGGGLVQPGGSLRLSCAASGFTFSRYHMSWVRQAPGKGLEWVSSIRPSGGSTIYADSVKGRFTISRDNSKNTLYLQMNSLRAEDTAVYYCAREPRRYYYDSSGSYDAFDIWGQGTMVTVSS VL: AQSELTQPPSMSGTPGQRVIISCSGSNSNIGNNFVYWYQQVAGSAPKLLIFRNNQRPSGVPDRFTVSKSGASASLAIGGLRSEDEADYYCAAWDDSLSGVLFGGGTKVTVLG

>  <observedProperty>
pKd

>  <quantitativeReadout>
8.51

$$$$
>  <binder>
M0093-C08 (Fab, V domains shown) VH: EVQLLESGGGLVQPGGSLRLSCAASGFTFSRYPMGWVRQAPGKGLEWVSSIYPSGGSTYYADSVKGRFTISRDNSKNTLYLQMNSLRAEDTAVYYCARVGVWYGMDVWGQGTTVTVSS VL: DIQMTQSPGTLSLSPGERATLSCRASQSVSSSYLAWYQQKPGQAPRLLIFAASTRATGIPDRFSGSGSATDFTLTISSLEPEDFAVYYCQQRSNWPPELTFSGGTKVEIKR

>  <observedProperty>
pKd

>  <quantitativeReadout>
7.39

$$$$
>  <binder>
M0134-D07 (Fab, V domains shown) VH: EVQLLESGGGLVQPGGSLRLSCAASGFTFSRYFMIWVRQAPGKGLEWVSSIVPSGGPTRYADSVKGRFTISRDNSKNTLYLQMNSLRAEDTAVYYCARRGPVYYYDSSGSHSAFDIWGQGTMVTVSS VL: DIQMTQSPSSLSASVGDRVTITCRASQGIRNDLGWYQQKPGKAPKLLIYAASSLQSGVPSRFSGSGSGTDFTLTISSLQPEDFATYYCLQDYNYPRTFGQGTKVEIKR

>  <observedProperty>
pKd

>  <quantitativeReadout>
8.57

$$$$
>  <binder>
M0093-G09 (Fab, V domains shown) VH: EVQLLESGGGLVQPGGSLRLSCAASGFTFSWYSMTWVRQAPGKGLEWVSSISPSGGATKYADSVKGRFTISRDNSKNTLYLQMNSLRAEDTAVYYCARGGAASLPFDYWGQGTLVTVSS VL: DIQMTQSPSSLSASVGDRVTITCRASQSISSFLNWYQQKPGKAPKLLLMYAASSLQSGVPSRFSGSGSGTDFTLTISSLQPEDFATYYCQQSYSTPYTFGQGTKLEIKR

>  <observedProperty>
pKd

>  <quantitativeReadout>
7.64

$$$$
